- Test system: Plasmodium falciparum
- test-protocol: In vitro anti-protozoal activity against Plasmodium falciparum Ghana strain
- Format: functional, organism-based
experimental-readout: IC50 (µM)

O=C(/C=C/c1ccc2ccccc2n1)N1CCCCC1 | 15
O=[N+]([O-])c1ccc(C(O)Cc2ccc3ccccc3n2)cc1 (stereo not given) | 15

---

- Tested on: Trypanosoma cruzi
- test-protocol: In vitro anti protozoal activity against Trypanosoma cruzi strain Tulahuen CL2 was determined
- Assay type: functional, organism-based
pIC50: −log10 of the molar value.
experimental-readout: pIC50

Below, 2 compounds whose answers are already recorded.
Fc1ccc(/C=C/c2ccc3ccccc3n2)cc1 | 4.66
O=C(/C=C/c1ccc2ccccc2n1)N1CCCCC1 | 4.77

1. CC1CS(=O)(=O)CCN1/N=C/c1ccc([N+](=O)[O-])o1 (configuration not stated) [NIFURTIMOX]
2. O=[N+]([O-])/C=C/c1ccc2ccccc2n1
3. CN(C)c1ccc(/C=C/c2ccc3ccccc3n2)cc1
4. O=C/C=C/c1ccc2ccccc2n1
Task item: Please order the records by their reported pIC50, lowest number first. Lab note: final answer is the ordered label list.
Reply: 3, 4, 2, 1

---

This section presents molecules with their documented pIC50 values.
- System: Leishmania amazonensis
- test-protocol: In vitro anti protozoal activity against Leishmania amazonensis strain MHOM/ET/L82/LV9 was determined
- Type: functional, organism-based
pIC50: −log10 of the molar value.

O=[N+]([O-])c1ccc(C(O)Cc2ccc3ccccc3n2)cc1 (centres undefined) | < 4.49
CN(C)c1ccc(C(O)Cc2ccc3ccccc3n2)cc1 (centres undefined) | < 4.49
COc1cc(NCc2ccc3ccccc3n2)cc(OC)c1OC | < 4.49
O=C(/C=C/c1ccc2ccccc2n1)N1CCOCC1 | < 4.49
COc1ccc(/C=C/c2ccc3ccccc3n2)c(OC)c1 | < 4.49
OC(Cc1ccc2ccccc2n1)c1ccco1 (centres undefined) | < 4.49
OC(Cc1ccc2ccccc2n1)c1ccc(F)cc1 (centres undefined) | < 4.49
COc1ccc(/C=C/c2ccc3ccccc3n2)cc1OC | < 4.49

get_value(item= CN1CCN(C(=O)/C=C/c2ccc3ccccc3n2)CC1 , readout=pIC50) returns < 4.49

The recorded pIC50 for entry CCCCCCCCCCCCCCCCOP(=O)([O-])OCC[N+](C)(C)C equals 5.51

Item: O=C(/C=C/c1ccc2ccccc2n1)N1CCCCC1 | pIC50: 4.74

# pIC50 (molecule: O=C/C=C/c1ccc2ccccc2n1 ) is 5.40

---

- Test system: Human T-cell leukemia virus type I
- test-protocol: Inhibitory activity against proliferation of HTLV-1 transformed cell lines (HUT-102) at 10 uM
- Type: functional
- condition-notes: Primate T-lymphotropic virus 1, HuT-102
experimental-readout: inhibition at 10 µM (%)
Could you give me the number in %? Just the number is fine.

Some entries whose results are on file:
Fc1ccccc1NCc1ccc2ccccc2n1 | 0
CN1CCN(C(=O)/C=C/c2ccc3ccccc3n2)CC1 | 0
COc1ccc(/C=C/c2ccc3ccccc3n2)cc1OC | 0
O=[N+]([O-])c1ccc(C(O)Cc2ccc3ccccc3n2)cc1 (stereo not given) | 10
OC(Cc1ccc2ccccc2n1)c1ccc(F)cc1 (stereo not given) | 0

In plain terms, O=[N+]([O-])/C=C/c1ccc2ccccc2n1 has a documented inhibition at 10 µM of 76

COc1ccc(C(O)Cc2ccc3ccccc3n2)cc1OC (stereo not given) has a reported inhibition at 10 µM of 0

Measured inhibition at 10 µM, O=[N+]([O-])c1ccc(/C=C/c2ccc3ccccc3n2)cc1 : 0

The compound O=C/C=C/c1ccc2ccccc2n1 showed inhibition at 10 µM equal to 34

The compound O=C(/C=C/c1ccc2ccccc2n1)N1CCCCC1 showed inhibition at 10 µM equal to 0

---

- Organism: Homo sapiens
- test-protocol: Cytotoxicity in macrophages
- Type: functional
experimental-readout: IC50

Fc1ccccc1NCc1ccc2ccccc2n1 | > 32 µM
O=C(/C=C/c1ccc2ccccc2n1)N1CCCCC1 | > 32 µM
OC(Cc1ccc2ccccc2n1)c1ccco1 (configuration not stated) | > 32 µM

The reported value for Fc1ccc(/C=C/c2ccc3ccccc3n2)cc1 in terms of IC50 is > 32 µM

Kindly note the recorded IC50 for O=[N+]([O-])c1ccc(/C=C/c2ccc3ccccc3n2)cc1 , which is > 32 µM

The reported IC50 of the compound COc1cc(NCc2ccc3ccccc3n2)cc(OC)c1OC was > 32 µM

Lab note: measured IC50 of CN(C)c1ccc(/C=C/c2ccc3ccccc3n2)cc1 was 16 µM

---

The compounds listed here are annotated with their inhibition at 10 µM.
- Tested on: Human T-cell leukemia virus type I
- test-protocol: Inhibitory activity against proliferation of HTLV-1 transformed cell lines (HUT-102) at 10 uM
- Format: functional
- condition-notes: Primate T-lymphotropic virus 1, HuT-102
Respond numerically; units are % and should not be typed.

CN(C)c1ccc(C(O)Cc2ccc3ccccc3n2)cc1 (configuration not stated) | 0
CN(C)c1ccc(/C=C/c2ccc3ccccc3n2)cc1 | 26
OC(Cc1ccc2ccccc2n1)c1ccco1 (configuration not stated) | 0
COc1ccc(/C=C/c2ccc3ccccc3n2)c(OC)c1 | 0
COc1cc(NCc2ccc3ccccc3n2)cc(OC)c1OC | 0
O=C(/C=C/c1ccc2ccccc2n1)N1CCOCC1 | 0

Continue with the next compound.
Field inhibition at 10 µM (entry Fc1ccc(/C=C/c2ccc3ccccc3n2)cc1 ) reads 26

---

- Tested on: Trypanosoma cruzi
- test-protocol: In vitro anti protozoal activity against Trypanosoma cruzi strain Tulahuen CL2 was determined
- Type: functional, organism-based
pIC50: −log10 of the molar value.
experimental-readout: pIC50

1. Br/C=C/c1ccc2ccccc2n1
2. O=[N+]([O-])c1ccc(/C=C/c2ccc3ccccc3n2)cc1
3. O=C(/C=C/c1ccc2ccccc2n1)N1CCOCC1
Task item: In this exercise, place the 3 molecules in ascending sequence of their recorded pIC50. Give me the labels in the order the question wants.
Reply: 2, 3, 1
(2: 4.55, 3: 4.89, 1: 6.82)

---

Quick reference for IC50 among some compounds
- System: Plasmodium falciparum
- test-protocol: In vitro anti-protozoal activity against Plasmodium falciparum Ghana strain
- Assay type: functional, organism-based

Example cases with answers are listed next.
Fc1ccccc1NCc1ccc2ccccc2n1 | > 32 µM
COc1ccc(/C=C/c2ccc3ccccc3n2)cc1OC | > 32 µM
O=C/C=C/c1ccc2ccccc2n1 | 31 µM
O=[N+]([O-])c1ccc(/C=C/c2ccc3ccccc3n2)cc1 | > 32 µM
COc1cc(NCc2ccc3ccccc3n2)cc(OC)c1OC | > 32 µM

Item CN(C)c1ccc(C(O)Cc2ccc3ccccc3n2)cc1 (stereo not drawn) was tested on Plasmodium falciparum; the reported IC50 is > 32 µM

The compound COc1ccc(C(O)Cc2ccc3ccccc3n2)cc1OC (stereo not drawn) , tested on Plasmodium falciparum, showed IC50 of > 32 µM

Known value: Plasmodium falciparum IC50 of the compound Br/C=C/c1ccc2ccccc2n1 equals > 32 µM

For OC(Cc1ccc2ccccc2n1)c1ccc(F)cc1 (stereo not drawn) on Plasmodium falciparum, measured IC50 was 4 µM

Summary: CN(C)c1ccc(/C=C/c2ccc3ccccc3n2)cc1 , Plasmodium falciparum, IC50 = > 32 µM

The compound O=[N+]([O-])/C=C/c1ccc2ccccc2n1 , when measured on Plasmodium falciparum, yielded IC50 of 16 µM

Tested on Plasmodium falciparum: O=C(/C=C/c1ccc2ccccc2n1)N1CCOCC1 . Observed IC50: 12 µM

I looked up Fc1ccc(/C=C/c2ccc3ccccc3n2)cc1 and its IC50 for Plasmodium falciparum was > 32 µM

---

Readings of IC50 for the listed molecules
- Organism: Homo sapiens
- test-protocol: Cytotoxicity in macrophages
- Type: functional

Illustrative cases are given below, each with its answer.
OC(Cc1ccc2ccccc2n1)c1ccc(F)cc1 (configuration not stated) | > 32 µM
COc1ccc(C(O)Cc2ccc3ccccc3n2)cc1OC (configuration not stated) | > 32 µM
O=[N+]([O-])/C=C/c1ccc2ccccc2n1 | > 32 µM

IC50 reported for this molecule O=[N+]([O-])c1ccc(C(O)Cc2ccc3ccccc3n2)cc1 (configuration not stated) : > 32 µM

Just so you know, measured IC50 for CCCCCCCCCCCCCCCCOP(=O)([O-])OCC[N+](C)(C)C came out at 12.5 µM

Briefly, IC50 measured for CN1CCN(C(=O)/C=C/c2ccc3ccccc3n2)CC1 : > 32 µM

Please fill in: IC50 reported for Br/C=C/c1ccc2ccccc2n1 = 13 µM

IC50 in this record for CN(C)c1ccc(C(O)Cc2ccc3ccccc3n2)cc1 (configuration not stated) : > 32 µM

The molecule identified as COc1ccc(/C=C/c2ccc3ccccc3n2)c(OC)c1 registered its IC50 at > 32 µM

// IC50 lookup, molecule = O=C/C=C/c1ccc2ccccc2n1 , result: 9 µM

Input COc1ccc(/C=C/c2ccc3ccccc3n2)cc1OC . Output IC50: > 32 µM

Record O=C(/C=C/c1ccc2ccccc2n1)N1CCOCC1 . Reported IC50: > 32 µM
